Ratio reference
# PROTOCOL SUMMARY: The compound evaluated for its receptor selectivity 5-HT2C receptors versus [125I]- DOI- labeled receptors
MEASUREMENT TYPE: Ratio

In [3]: df
Out[3]:
                                entry_smiles  measurement_type  result
 0            COc1cc(CCNCc2ccccc2)c(OC)cc1Br             Ratio     300
 1      COc1ccc2[nH]cc(CCNCc3ccc(Br)cc3)c2c1             Ratio    1000
 2          COc1ccc2[nH]cc(CCNCc3ccccc3)c2c1             Ratio      70
 3         COc1cc(CCNCc2ccc(F)cc2)c(OC)cc1Br             Ratio      80
 4                   CCNCCc1cc(OC)c(Br)cc1OC             Ratio      48
 5        COc1ccc2[nH]cc(CCNCCCc3ccccc3)c2c1             Ratio      16
 6        COc1cc(CCNCc2ccc(Cl)cc2)c(OC)cc1Br             Ratio      48
 7        COc1ccc(CNCCc2cc(OC)c(Br)cc2OC)cc1             Ratio      17
 8       COc1ccc2[nH]cc(CCNCc3ccc(F)cc3)c2c1             Ratio      88
 9        COc1cc(CCNCc2ccc(Br)cc2)c(OC)cc1Br             Ratio     120
10  COc1ccc2[nH]cc(CCNCc3ccc([N+](=O)[O-])cc3)c2c1             Ratio      70
11         COc1cc(CCNCCCCc2ccccc2)c(OC)cc1Br             Ratio      26

====

Below is a list of entries, each paired with its recorded pKi value.
# EXPERIMENTAL SYSTEM: 5-hydroxytryptamine receptor 2A (Homo sapiens)
# Sequence (P28223 whole entry): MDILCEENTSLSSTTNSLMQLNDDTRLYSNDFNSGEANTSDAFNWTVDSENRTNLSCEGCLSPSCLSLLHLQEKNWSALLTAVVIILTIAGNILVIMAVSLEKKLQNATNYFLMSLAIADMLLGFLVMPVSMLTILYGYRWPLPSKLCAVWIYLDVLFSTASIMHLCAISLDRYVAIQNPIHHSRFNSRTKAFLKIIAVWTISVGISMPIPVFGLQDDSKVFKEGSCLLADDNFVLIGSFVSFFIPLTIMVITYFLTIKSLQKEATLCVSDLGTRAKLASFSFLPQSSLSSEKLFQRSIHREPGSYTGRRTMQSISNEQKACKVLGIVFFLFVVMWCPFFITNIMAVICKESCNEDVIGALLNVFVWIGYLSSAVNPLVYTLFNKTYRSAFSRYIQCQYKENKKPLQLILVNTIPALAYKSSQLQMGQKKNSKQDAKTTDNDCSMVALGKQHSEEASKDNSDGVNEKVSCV
# PROTOCOL SUMMARY: Affinity against 5-hydroxytryptamine 2A receptor (D) labeled with [125I]DOI.
pKi: −log10 of the molar value.
MEASUREMENT TYPE: pKi

                                entry_smiles  numeric_result
 0              COc1cc(CCN2CCCCC2)c(OC)cc1Br            6.81
 1      COc1ccc2[nH]cc(CCNCc3ccc(Cl)cc3)c2c1            6.98
 2         COc1cc(CCNCCCCc2ccccc2)c(OC)cc1Br            7.57
 3  COc1cc(CCNCc2ccc([N+](=O)[O-])cc2)c(OC)cc1Br            7.24
 4       COc1ccc2[nH]cc(CCNCc3ccc(N)cc3)c2c1            6.98
 5       COc1ccc2[nH]cc(CCNCc3ccc(I)cc3)c2c1            6.92
 6  COc1ccc2[nH]cc(CCNCc3ccc([N+](=O)[O-])cc3)c2c1            6.85
 7                 COc1cc(CCN(C)C)c(OC)cc1Br            7.80
 8            COc1cc(CCNCc2ccccc2)c(OC)cc1Br            9.52
 9       COc1ccc2[nH]cc(CCNCc3ccc(F)cc3)c2c1            7.40
10         COc1cc(CCNCc2ccc(N)cc2)c(OC)cc1Br            7.80
11      COc1ccc(CNCCc2c[nH]c3ccc(OC)cc23)cc1            7.80
